test system: OVCAR-5; assay: NCI tumour cell line growth inhibition, 48 h
Activity calls are given as the source filed them. Cut-off read from the data, not from the text of the source: active = GI50 up to about 1.1 µM and inactive = higher.
recorded-metric: GI50

Qu. Consider the compound CN(C)CCNC(=O)c1cccc2[nH]c(-c3ccccn3)nc12 . State its measured GI50.
Ans. 38.2 µM (inactive)

Qu. Consider the compound COCOC1/C=C/CCCCC(=O)C(C)C#CC1 (stereo not given) . State its measured GI50.
Ans. 12.8 µM (inactive)

Qu. Consider the compound S=C(NCCc1ccccn1)N/N=C/c1ccccn1 . State its measured GI50.
Ans. < 0.018 µM (active)

Qu. Consider the compound CCc1cc2c(c3c1CCC3=O)CC1(Cc3ccc(C)cc3C1)C2 (stereo not given) . State its measured GI50.
Ans. 29.4 µM (inactive)

Qu. Consider the compound CCc1c2c(nc3ccc(O)cc13)-c1cc3c(c(=O)n1C2)COC(=O)[C@]3(O)CC [7-ETHYL-10-HYDROXYCAMPTOTHECIN] . State its measured GI50.
Ans. 0.00472 µM (active)

---
Qu. Consider the compound CCOC(=O)C(C#N)(Cc1c[nH]c2ccccc12)NC(C)=O (stereo not given) . State its measured GI50.
Ans. > 100 µM (inactive)

Qu. Consider the compound Cc1cccc(C(C)(C)C)c1NC(=O)CC1C(=O)Nc2ccccc2S1(=O)=O (stereo not given) . State its measured GI50.
Ans. 13 µM (inactive)

Qu. Consider the compound COC(=O)CN(CC1O[C@@H]2OC(C)(C)O[C@@H]2C1NC(C)=O)C(=O)OCc1ccccc1 (stereo not given in full) . State its measured GI50.
Ans. > 100 µM (inactive)

Qu. Consider the compound N#Cc1c2c(c(-c3cccs3)n(C3OC(CO)C(O)C(O)C3O)c1=S)CCc1ccccc1-2 (stereo not given) . State its measured GI50.
Ans. > 100 µM (inactive)

Qu. Consider the compound Cc1cc(C)nc(NS(=O)(=O)c2ccc(NC(=O)c3cccc4c(Nc5ccc(S(=O)(=O)N=C(N)N)cc5)c5ccc(Cl)cc5nc34)cc2)n1 . State its measured GI50.
Ans. > 100 µM (inactive)

Qu. Consider the compound CCOC(=O)c1nn2c(nc1=O)sc1ccc3ccccc3c12 . State its measured GI50.
Ans. > 100 µM (inactive)
